# assayText: qHTS of pediatric cancer cell lines to identify multiple opportunities for drug repurposing: Primary screen for TC32 cells (AID 1347089); note: nearly all actives have a fitted effect of over 60% in size
# experimentalParameters: TC32 Ewing sarcoma viability, CellTiter-Glo luminescence, 48 h; series mostly up to 45.8 µM
Inconclusive results are not listed. Activity calls are given as the source filed them. Calls come from the whole dose curve; as a rule, active = well fitted cell-killing curve with a large enough effect; inconclusive = small, poorly fitted or top-dose-only effect; inactive = flat fitted curve, though single readings scatter.
resultType: outcome

Guide cases for outcome, answers given:
* CC(=O)Nc1ccc(O)cc1 | inactive
* COC1=C(OC)C(=O)C(CCCCCCCCCCO)=C(C)C1=O | inactive
* CN1C(C(=O)Nc2ccccn2)=C(O)c2sccc2S1(=O)=O | inactive
* CC(C)c1nc(CN(C)C(=O)N[C@H](C(=O)N[C@@H](Cc2ccccc2)C[C@H](O)[C@H](Cc2ccccc2)NC(=O)OCc2cncs2)C(C)C)cs1 | inactive

Proceeding to the next compound to report its outcome.
outcome recorded for this compound, C=CCc1cc(OC)c(O)c(C(=O)NCCO)c1 , is inactive

FYI, the data here is from PubChem BioAssay (NCATS).
